assay: Lactate dehydrogenase (LDH) release assay; type: cell-based; conditions: LDH: Cytotoxicity assay EC50
pEC50: −log10 of the molar value. Positions of bridges follow the written chain, without caps; N, C: chain ends. Non-standard residues stand in square brackets, D forms with d. Residues, ends and D or L forms follow the SMILES beside them. tBuAla = CC(C)(C)C[C@H](N)C(=O)O; R8 = C=CCCCCCC[C@@](C)(N)C(=O)O; Cba = N[C@@H](CC1CCC1)C(=O)O; R5 = C=CCCC[C@@](C)(N)C(=O)O; S5 = C=CCCC[C@](C)(N)C(=O)O; Aib = CC(C)(N)C(=O)O
I'd appreciate it if you could supply pEC50 values for the items below.

Examples with their reported pEC50 follow.
Query: Need pEC50 of CC(=O)N[C@H](C(=O)N[C@@H](CO)C(=O)N[C@@H](Cc1ccccc1)C(=O)N[C@]1(C)CCCCCCC=CCCC[C@@](C)(C(=O)O)NC(=O)[C@H](CC(C)C)NC(=O)[C@H](CC(C)C)NC(=O)[C@H](C)NC(=O)[C@H](Cc2c[nH]c3ccccc23)NC(=O)[C@H](Cc2ccc(O)cc2)NC(=O)[C@H](CCC(=O)O)NC1=O)[C@@H](C)O , thanks.
Reply: < 4.29

Query: Need pEC50 of CC(=O)N[C@@H](CC(C)C)C(=O)N[C@H](C(=O)N[C@@H](Cc1ccccc1)C(=O)N[C@]1(C)CCCCCCC=CCCC[C@@](C)(C(=O)N[C@@H](CO)C(=O)N[C@@H](C)C(=O)N[C@@H](C)C(=O)NCCCCCC(N)=O)NC(=O)[C@H](CC2CCC2)NC(=O)[C@H](CCC(N)=O)NC(=O)[C@H](C)NC(=O)[C@H](Cc2c[nH]c3ccccc23)NC(=O)[C@H](Cc2ccc(O)cc2)NC(=O)[C@H](CCC(=O)O)NC1=O)[C@@H](C)O , thanks.
Reply: < 4.30

Query: Need pEC50 of CC(=O)N[C@@H](CCCCN=[N+]=[N-])C(=O)NCCC(=O)N[C@@H](CC(C)C)C(=O)N[C@H](C(=O)N[C@@H](Cc1ccccc1)C(=O)N[C@]1(C)CCCCCCC=CCCC[C@@](C)(C(=O)N[C@@H](CO)C(=O)N[C@@H](C)C(=O)N[C@@H](C)C(N)=O)NC(=O)[C@H](CC2CCC2)NC(=O)[C@H](CCC(=O)O)NC(=O)[C@H](C)NC(=O)[C@H](Cc2c[nH]c3ccccc23)NC(=O)[C@H](Cc2ccc(O)cc2)NC(=O)[C@H](CCC(=O)O)NC1=O)[C@@H](C)O , thanks.
Reply: < 4.30

Query: Need pEC50 of CC(=O)N[C@@H](CC(C)C)C(=O)N[C@H](C(=O)N[C@@H](Cc1ccccc1)C(=O)N[C@]1(C)CCCCCCC=CCCC[C@@](C)(C(=O)N[C@@H](CCCNC(=N)N)C(=O)N[C@@H](C)C(=O)N[C@@H](C)C(N)=O)NC(=O)[C@H](CC2CCC2)NC(=O)[C@H](CC(C)C)NC(=O)[C@H](CCC(N)=O)NC(=O)[C@H](Cc2c[nH]c3ccccc23)NC(=O)[C@H](Cc2ccc(O)cc2)NC(=O)[C@H](CCC(=O)O)NC1=O)[C@@H](C)O [MP-196] (Ac-LTF[R8]EYWQL[Cba][S5]RAA-NH2; staple 4-11) , thanks.
Reply: < 4.30

Query: Need pEC50 of CC(=O)N[C@H](C(=O)N[C@@H](CO)C(=O)N[C@@H](Cc1ccccc1)C(=O)N[C@]1(C)CCCCCCC=CCCC[C@@](C)(C(N)=O)NC(=O)[C@H](CC(C)(C)C)NC(=O)[C@H](CC(C)C)NC(=O)[C@H](C)NC(=O)[C@H](Cc2c[nH]c3ccccc23)NC(=O)[C@H](Cc2ccc(O)cc2)NC(=O)[C@H](CCC(=O)O)NC1=O)[C@@H](C)O [MP-149] (Ac-TSF[R8]EYWAL[tBuAla][S5]-NH2; staple 4-11) , thanks.
Reply: 4.55

Look at each molecule and report its pEC50.
1. CC(=O)N[C@H](C(=O)N[C@@H](CO)C(=O)N[C@@H](Cc1ccccc1)C(=O)N[C@]1(C)CCCCCCC=CCCC[C@@](C)(C(=O)N[C@@H](CO)C(=O)N[C@@H](C)C(=O)N[C@@H](C)C(=O)N[C@@H](CCC(=O)O)C(N)=O)NC(=O)[C@H](CC(C)(C)C)NC(=O)[C@H](CC(C)C)NC(=O)[C@H](C)NC(=O)[C@H](Cc2c[nH]c3ccccc23)NC(=O)[C@H](Cc2ccc(O)cc2)NC(=O)[C@H](CCC(=O)O)NC1=O)[C@@H](C)O [MP-143] (Ac-TSF[R8]EYWAL[tBuAla][S5]SAAE-NH2; staple 4-11)
2. CC(=O)N[C@H](C(=O)N[C@@H](CO)C(=O)N[C@@H](Cc1ccccc1)C(=O)NC(C)(C)C(=O)N[C@@H](CCC(=O)O)C(=O)N[C@@H](Cc1ccc(O)cc1)C(=O)N[C@@H](Cc1c[nH]c2ccccc12)C(=O)N[C@@H](C)C(=O)N[C@@H](CC(C)C)C(=O)N[C@@H](CC(C)C)C(=O)NC(C)(C)C(N)=O)[C@@H](C)O
3. CC(=O)N[C@H](C(=O)N[C@@H](CO)C(=O)N[C@@H](Cc1ccccc1)C(=O)N[C@]1(C)CCCC=CCCC[C@](C)(C(=O)N[C@@H](CC(C)C)C(=O)N[C@@H](CC(C)C)C(=O)N2CCC[C@H]2C(=O)N[C@@H](CCC(N)=O)C(=O)N[C@@H](CC(N)=O)C(=O)N[C@@H](Cc2ccccc2)C(N)=O)NC(=O)[C@H](Cc2c[nH]c3ccccc23)NC(=O)[C@H](Cc2ccc(O)cc2)NC(=O)[C@H](CCC(=O)O)NC1=O)[C@@H](C)O [MP-1173] (Ac-TSF[R5]EYW[R5]LLPQNF-NH2; staple 4-8)
4. CC(=O)N[C@H](C(=O)N[C@@H](CO)C(=O)N[C@@H](Cc1ccccc1)C(=O)N[C@]1(C)CCCCCCC=CCCC[C@@](C)(C(=O)N[C@@H](CO)C(=O)N[C@@H](C)C(=O)N[C@@H](C)C(=O)N[C@@H](CCC(=O)O)C(N)=O)NC(=O)[C@H](CC(C)C)NC(=O)[C@H](CC(C)C)NC(=O)[C@H](C)NC(=O)[C@H](Cc2c[nH]c3ccccc23)NC(=O)[C@H](Cc2ccc(O)cc2)NC(=O)[C@H](CCC(=O)O)NC1=O)[C@@H](C)O
5. CC(=O)N[C@H](C(=O)N[C@@H](CO)C(=O)N[C@@H](Cc1ccccc1)C(=O)NC(C)(C)C(=O)N[C@@H](CCC(=O)O)C(=O)N[C@@H](Cc1ccc(O)cc1)C(=O)N[C@@H](Cc1c[nH]c2ccccc12)C(=O)N[C@@H](C)C(=O)N[C@@H](CC(C)C)C(=O)N[C@@H](CC(C)(C)C)C(=O)NC(C)(C)C(N)=O)[C@@H](C)O [MP-155] (Ac-TSF[Aib]EYWAL[tBuAla][Aib]-NH2)

Reply:
1: < 4.30; 2: < 4.30; 3: < 4.30; 4: < 4.30; 5: < 4.30

Recorded values, source paper PMC10786919.
